In this section, each of the compounds is paired with its reported IC50.
- target.system: TYK2 (Homo sapiens, UniProt P29597)
- Sequence (P29597 whole entry): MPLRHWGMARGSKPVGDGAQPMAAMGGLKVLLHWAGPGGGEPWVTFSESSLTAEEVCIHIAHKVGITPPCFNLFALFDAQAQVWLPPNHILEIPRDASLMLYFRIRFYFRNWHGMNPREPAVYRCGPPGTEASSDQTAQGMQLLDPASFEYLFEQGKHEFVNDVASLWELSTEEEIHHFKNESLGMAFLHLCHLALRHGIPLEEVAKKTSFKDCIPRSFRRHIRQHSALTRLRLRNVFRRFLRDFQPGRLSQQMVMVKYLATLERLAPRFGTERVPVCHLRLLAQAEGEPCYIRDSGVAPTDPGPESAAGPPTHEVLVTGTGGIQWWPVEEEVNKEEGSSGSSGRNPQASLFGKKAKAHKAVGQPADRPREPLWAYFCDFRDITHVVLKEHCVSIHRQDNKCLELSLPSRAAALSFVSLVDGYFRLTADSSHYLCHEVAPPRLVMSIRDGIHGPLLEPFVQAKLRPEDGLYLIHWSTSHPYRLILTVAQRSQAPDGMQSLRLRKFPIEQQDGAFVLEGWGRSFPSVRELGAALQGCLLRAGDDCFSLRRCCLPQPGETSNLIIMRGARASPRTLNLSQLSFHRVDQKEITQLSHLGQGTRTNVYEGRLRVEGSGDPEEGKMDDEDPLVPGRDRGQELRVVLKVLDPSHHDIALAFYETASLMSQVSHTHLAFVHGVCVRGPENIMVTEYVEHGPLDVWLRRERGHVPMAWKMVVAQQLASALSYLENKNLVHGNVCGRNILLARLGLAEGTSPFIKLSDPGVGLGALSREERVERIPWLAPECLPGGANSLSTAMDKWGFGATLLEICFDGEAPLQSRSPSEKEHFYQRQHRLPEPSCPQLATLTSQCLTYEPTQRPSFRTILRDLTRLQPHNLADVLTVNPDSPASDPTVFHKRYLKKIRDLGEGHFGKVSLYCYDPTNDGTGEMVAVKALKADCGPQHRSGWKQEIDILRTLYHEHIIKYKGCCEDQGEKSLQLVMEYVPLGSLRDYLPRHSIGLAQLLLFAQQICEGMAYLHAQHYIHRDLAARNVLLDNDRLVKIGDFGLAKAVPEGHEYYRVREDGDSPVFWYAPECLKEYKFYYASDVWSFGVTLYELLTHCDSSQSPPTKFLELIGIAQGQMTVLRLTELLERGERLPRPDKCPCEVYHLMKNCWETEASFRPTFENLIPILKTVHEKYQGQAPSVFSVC
- assay.overview: TYK2 kinase inhibition (Table A1)
- Assay type: biochemical
- measurement.conditions: Table B1
Where a name gives a salt, the structure may show the parent alone.
quantity.measured: IC50

> print(dat)
                                   compound  reported.result
1  CC(=O)N1CCC(CN(C)Cc2ccc3cc2CCc2cncc(c2)Nc2ncc(Cl)c(n2)N3)CC1 [Example B346, tris(trifluoroacetate)]         > 400 nM
2  O=S(=O)(c1ccc(Cl)cc1)c1ccc(CN2CCN(Cc3cc4cc(c3)Nc3nc(ncc3Cl)Nc3cccc(c3)CC4)CC2)cc1 [Example B195, tris(trifluoroacetate)]        > 1000 nM
3  CNCc1ccc2cc1CCc1cncc(c1)Nc1ncc(Cl)c(n1)N2 [Example B334, trihydrochloride]         > 200 nM

The measured values listed here are drawn from patent US8871753B2.
